Sourced from ChEMBL document CHEMBL5058577

Recorded Population Healthy Nuclei (%) for the following compounds
- Test system: U2OS
- measurement_protocol: Multiplex assay against U2OS
- Format: toxicity, cell-based
- experimental_context: human, 48 h, 1 µM, compound concentration 1 uM, replicate 1
Kindly answer with a numeric value in %, unit omitted.

CCCCC1=NC2(CCCC2)C(=O)N1Cc1ccc(-c2ccccc2-c2nnn[nH]2)cc1; 71
CC[C@@H](C)Nc1nc(C)nc2c(-c3ccc(OC)nc3C)c(C)nn12; 75

Reported Population Healthy Nuclei (%) of O=C(CCCc1ccccc1)Nc1nc2ccccc2c(=O)s1 : 76

Reported Population Healthy Nuclei (%) of CCc1cc2cc(NS(=O)(=O)c3ccc(C#N)cc3)ccc2n(CC)c1=O : 70

----------
- Test system: Fibroblast
- measurement_protocol: Multiplex assay against human fibroblast
- Type: toxicity, cell-based
- experimental_context: 12 h, 1 µM, compound concentration 1 uM, replicate 1
endpoint_label: Population Mitotic Cells (%)
Kindly answer with a numeric value in %, unit omitted.

Recorded results for 2 molecules are shown here.
Cc1cnc(-c2cc(N3CCN(C(=O)CCS(C)(=O)=O)CC3)ncc2Cl)c(C)c1; 63
CC[C@@H](C)Nc1nc(C)nc2c(-c3ccc(OC)nc3C)c(C)nn12 [PEXACERFONT]; 60

With Fibroblast as the test system, CCCCC1=NC2(CCCC2)C(=O)N1Cc1ccc(-c2ccccc2-c2nnn[nH]2)cc1 [IRBESARTAN] showed Population Mitotic Cells (%) of 59

With Fibroblast as the test system, N#Cc1c(Oc2cccc(OS(=O)(=O)CCCC(F)(F)F)c2)cccc1C(F)(F)F showed Population Mitotic Cells (%) of 48

With Fibroblast as the test system, NCCc1cn(S(=O)(=O)c2c(Cl)nc3sccn23)c2ccccc12.O=C(O)C(=O)O showed Population Mitotic Cells (%) of 55

With Fibroblast as the test system, Br.CS(=O)(=O)Nc1c(O)ccc2c1CCCC2C1=NCCN1 (centres undefined) showed Population Mitotic Cells (%) of 82

With Fibroblast as the test system, COC[C@@H](c1ccc(C(F)(F)F)cc1)N1CCN(C2(C)CCN(C(=O)c3c(C)ncnc3C)CC2)C[C@@H]1C.O=C(O)/C=C\C(=O)O [VICRIVIROC MALEATE] showed Population Mitotic Cells (%) of 63

With Fibroblast as the test system, O=C(NCCN1CCC(n2c(=O)[nH]c3cc(Cl)ccc32)CC1)c1ccc(F)cc1 [HALOPEMIDE] showed Population Mitotic Cells (%) of 67

With Fibroblast as the test system, C[C@H](N)COC(=O)[C@@H](CCCCN)NC(=O)Cc1c(-c2ccc3ccccc3c2)[nH]c2c1ccc1ccccc12 showed Population Mitotic Cells (%) of 67

----------
- System: Fibroblast
- measurement_protocol: Multiplex assay against human fibroblast
- Assay type: toxicity, cell-based
- experimental_context: 12 h, 1 µM, compound concentration 1 uM, replicate 2
Please use class 1 whenever Population Apoptotic (%) is not below 40%, and class 0 whenever it is.

Worked cases, answers included:
Cc1sc2c(c1C)C(c1ccc(Cl)cc1)=N[C@@H](CC(=O)NCCCCCCCCNC(=O)COc1cccc3c1C(=O)N(C1CCC(=O)NC1=O)C3=O)c1nnc(C)n1-2 (some centres undefined); class 1
N#Cc1c(Oc2cccc(OS(=O)(=O)CCCC(F)(F)F)c2)cccc1C(F)(F)F; class 0
CC(=O)Nc1cccc2c1c(Sc1ccc(Cl)cc1)c(C)n2CC(=O)O; class 0

**Q:** Is it the case that CCCCCC(O)/C=C/[C@H]1C(=O)CC(O)C1C/C=C\CCCC(=O)O (some centres undefined) has Population Apoptotic (%) reaching or exceeding 40%?
**A:** class 1

**Q:** Is it the case that N#Cc1cc(F)cc(-c2nc(-c3ccc(F)cn3)no2)c1 has Population Apoptotic (%) reaching or exceeding 40%?
**A:** class 0

**Q:** Is it the case that COc1cccc2c1c(NS(=O)(=O)c1ccc(Cl)s1)nn2Cc1cccc(CNC(=O)C(C)(C)O)c1 has Population Apoptotic (%) reaching or exceeding 40%?
**A:** class 0

**Q:** Is it the case that Cc1noc(-c2ccc(-c3ccc(CC(=O)O)cc3)cc2)c1NC(=O)O[C@H](C)c1ccccc1Cl has Population Apoptotic (%) reaching or exceeding 40%?
**A:** class 1

**Q:** Is it the case that CC(C)COc1ccc(CNC(=O)N(Cc2ccc(F)cc2)C2CCN(C)CC2)cc1 has Population Apoptotic (%) reaching or exceeding 40%?
**A:** class 1

**Q:** Is it the case that Cc1c(CC(=O)O)c2cccnc2n1Cc1ccc(S(C)(=O)=O)cc1C(F)(F)F has Population Apoptotic (%) reaching or exceeding 40%?
**A:** class 0
